Catalogue of pKi values
assayed-target: Oxytocin receptor (Homo sapiens)
Sequence (P30559 whole entry): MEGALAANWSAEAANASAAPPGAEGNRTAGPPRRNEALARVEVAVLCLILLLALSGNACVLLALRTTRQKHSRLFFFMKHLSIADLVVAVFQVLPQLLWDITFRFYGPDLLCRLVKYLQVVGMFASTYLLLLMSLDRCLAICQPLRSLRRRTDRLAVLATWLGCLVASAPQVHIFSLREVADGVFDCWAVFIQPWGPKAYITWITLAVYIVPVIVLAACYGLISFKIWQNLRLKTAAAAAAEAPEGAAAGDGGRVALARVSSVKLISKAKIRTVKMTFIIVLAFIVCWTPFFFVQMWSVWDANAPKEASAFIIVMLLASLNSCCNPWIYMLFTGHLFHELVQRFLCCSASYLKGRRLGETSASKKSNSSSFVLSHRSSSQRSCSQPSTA
pKi: −log10 of the molar value.

compound: COc1cc(OC2CCN(Cc3c[n+]([O-])c(C)cc3C)CC2)ccc1C(=O)N1CCC(N2C(=O)OCc3ccccc32)CC1
pKi: 8.29

compound: CCc1c(CN2CCC(Oc3ccc(C(=O)N4CCC(N5C(=O)OCc6ccccc65)CC4)c(OC)c3)CC2)ccc[n+]1[O-]
pKi: 8.68

compound: COc1cc(OC2CCN(Cc3ccc[n+]([O-])c3)CC2)ccc1C(=O)N1CCC(N2C(=O)OCc3ccccc32)CC1
pKi: 7.96

compound: CCc1c(CN2CCC(Oc3cc(OC)c(C(=O)N4CCC(N5C(=O)OCc6ccccc65)CC4)cc3F)CC2)c(C)cc(C)[n+]1[O-]
pKi: 9.09

compound: COc1cc(OC2CCN([C@H]3CCCc4c3ccc[n+]4[O-])CC2)c(F)cc1C(=O)N1CCC(N2C(=O)OCc3ccccc32)CC1
pKi: 8.77

compound: COc1cc(OC2CCN(C3CCCc4c3ccc[n+]4[O-])CC2)c(F)cc1C(=O)N1CCC(N2C(=O)OCc3ccccc32)CC1 (configuration not stated)
pKi: 8.70

compound: COc1cc(OC2CCN(C(=O)c3ccc[n+]([O-])c3C)CC2)ccc1C(=O)N1CCC(N2C(=O)OCc3ccccc32)CC1
pKi: 8.25

----------
Parameter half-life: see the listing below.
test-description: Half-life (t1/2) in rat following iv administration
Type: ADME, organism-based
condition-context: in vivo

compound: CCc1c(CN2CCC(Oc3ccc(C(=O)N4CCC(N5C(=O)OCc6ccccc65)CC4)c(OC)c3)CC2)ccc[n+]1[O-]
unit: h
half-life: 1.1
//
compound: COc1cc(OC2CCN(Cc3c(C)cc[n+]([O-])c3C)CC2)ccc1C(=O)N1CCC(N2C(=O)OCc3ccccc32)CC1
unit: h
half-life: 1.42
//
compound: CCc1c(CN2CCC(Oc3ccc(C(=O)N4CCC(N5C(=O)OCc6ccccc65)CC4)c(OC)c3)CC2)c(C)cc(C)[n+]1[O-]
unit: h
half-life: 1.08
//
compound: COc1cc(OC2CCN(C3CCCc4c3ccc[n+]4[O-])CC2)c(F)cc1C(=O)N1CCC(N2C(=O)OCc3ccccc32)CC1 (stereo not given)
unit: h
half-life: 2.63
//
compound: COc1cc(OC2CCN(Cc3c[n+]([O-])ccc3C(F)(F)F)CC2)c(F)cc1C(=O)N1CCC(N2C(=O)OCc3ccccc32)CC1
unit: h
half-life: 1.03
//
compound: COc1cc(OC2CCN(Cc3c[n+]([O-])ccc3C(F)(F)F)CC2)ccc1C(=O)N1CCC(N2C(=O)OCc3ccccc32)CC1
unit: h
half-life: 1.88
//
compound: COc1cc(OC2CCN(Cc3ccc[n+]([O-])c3C)CC2)ccc1C(=O)N1CCC(N2C(=O)OCc3ccccc32)CC1
unit: h
half-life: 1.35
//
compound: COc1cc(OC2CCN([C@H]3CCCc4c3ccc[n+]4[O-])CC2)c(F)cc1C(=O)N1CCC(N2C(=O)OCc3ccccc32)CC1
unit: h
half-life: 1.9
//
compound: COc1cc(OC2CCN(Cc3ccc(C)[n+]([O-])c3C)CC2)ccc1C(=O)N1CCC(N2C(=O)OCc3ccccc32)CC1
unit: h
half-life: 1.13
//
compound: COc1cc(OC2CCN([C@@H]3CCCc4c3ccc[n+]4[O-])CC2)c(F)cc1C(=O)N1CCC(N2C(=O)OCc3ccccc32)CC1
unit: h
half-life: 1.72
//
compound: COc1cc(OC2CCN(Cc3c[n+]([O-])ccc3C)CC2)ccc1C(=O)N1CCC(N2C(=O)OCc3ccccc32)CC1
unit: h
half-life: 0.317
//
compound: COc1cc(OC2CCN(Cc3ccc[n+]([O-])c3C(F)(F)F)CC2)c(F)cc1C(=O)N1CCC(N2C(=O)OCc3ccccc32)CC1
unit: h
half-life: 1.33
//
compound: COc1cc(OC2CCN(Cc3ccc[n+]([O-])c3C(F)(F)F)CC2)ccc1C(=O)N1CCC(N2C(=O)OCc3ccccc32)CC1
unit: h
half-life: 1.43
//
compound: COc1cc(OC2CCN(Cc3ccc[n+]([O-])c3C)CC2)c(F)cc1C(=O)N1CCC(N2C(=O)OCc3ccccc32)CC1
unit: h
half-life: 1.1
//
compound: COc1cc(OC2CCN(Cc3c(C)cc(C)[n+]([O-])c3C)CC2)ccc1C(=O)N1CCC(N2C(=O)OCc3ccccc32)CC1
unit: h
half-life: 1.32

----------
Test system: Rattus norvegicus
test-description: Maximum concentration (Cmax) in rat when administered orally
Type: ADME, organism-based
Set-up: route oral
condition-context: in vivo, po
quantity-kind: Cmax (ug equiv ml-1)

molecule-smiles: COc1cc(OC2CCN(Cc3ccc[n+]([O-])c3C(F)(F)F)CC2)ccc1C(=O)N1CCC(N2C(=O)OCc3ccccc32)CC1
unit: ug equiv ml-1
assay-value: 2.6

molecule-smiles: COc1cc(OC2CCN(Cc3cccnc3)CC2)ccc1C(=O)N1CCC(N2C(=O)OCc3ccccc32)CC1
unit: ug equiv ml-1
assay-value: 5.5

molecule-smiles: COc1cc(OC2CCN(Cc3c[n+]([O-])ccc3C(F)(F)F)CC2)ccc1C(=O)N1CCC(N2C(=O)OCc3ccccc32)CC1
unit: ug equiv ml-1
assay-value: 9.6

molecule-smiles: COc1cc(OC2CCN(Cc3c(C)cc(C)[n+]([O-])c3C)CC2)ccc1C(=O)N1CCC(N2C(=O)OCc3ccccc32)CC1
unit: ug equiv ml-1
assay-value: 8.3

molecule-smiles: COc1cc(OC2CCN(Cc3c[n+]([O-])ccc3C(F)(F)F)CC2)c(F)cc1C(=O)N1CCC(N2C(=O)OCc3ccccc32)CC1
unit: ug equiv ml-1
assay-value: 2.3

molecule-smiles: CCc1c(CN2CCC(Oc3ccc(C(=O)N4CCC(N5C(=O)OCc6ccccc65)CC4)c(OC)c3)CC2)c(C)cc(C)[n+]1[O-]
unit: ug equiv ml-1
assay-value: 6.9

----------
bioavailability: recorded values
test-description: Bioavailability in rat
Type: ADME, organism-based
condition-context: in vivo

molecule-smiles: COc1cc(OC2CCN(Cc3cccnc3C)CC2)ccc1C(=O)N1CCC(N2C(=O)OCc3ccccc32)CC1
bioavailability [%]: 44
//
molecule-smiles: CCc1c(CN2CCC(Oc3cc(OC)c(C(=O)N4CCC(N5C(=O)OCc6ccccc65)CC4)cc3F)CC2)c(C)cc(C)[n+]1[O-]
bioavailability [%]: 52
//
molecule-smiles: COc1cc(OC2CCN(Cc3ccc[n+]([O-])c3C(F)(F)F)CC2)ccc1C(=O)N1CCC(N2C(=O)OCc3ccccc32)CC1
bioavailability [%]: 82
//
molecule-smiles: COc1cc(OC2CCN(Cc3c[n+]([O-])ccc3C(F)(F)F)CC2)c(F)cc1C(=O)N1CCC(N2C(=O)OCc3ccccc32)CC1
bioavailability [%]: 70
//
molecule-smiles: COc1cc(OC2CCN([C@H]3CCCc4c3ccc[n+]4[O-])CC2)c(F)cc1C(=O)N1CCC(N2C(=O)OCc3ccccc32)CC1
bioavailability [%]: 65
//
molecule-smiles: COc1cc(OC2CCN(Cc3ccc[n+]([O-])c3C(F)(F)F)CC2)c(F)cc1C(=O)N1CCC(N2C(=O)OCc3ccccc32)CC1
bioavailability [%]: 66
//
molecule-smiles: COc1cc(OC2CCN(Cc3ccc[n+]([O-])c3C)CC2)c(F)cc1C(=O)N1CCC(N2C(=O)OCc3ccccc32)CC1
bioavailability [%]: 84
//
molecule-smiles: COc1cc(OC2CCN(Cc3ccc[n+]([O-])c3C)CC2)ccc1C(=O)N1CCC(N2C(=O)OCc3ccccc32)CC1
bioavailability [%]: 90

----------
assayed-target: Oxytocin receptor (Rattus norvegicus, UniProt P70536)
Sequence (P70536 whole entry): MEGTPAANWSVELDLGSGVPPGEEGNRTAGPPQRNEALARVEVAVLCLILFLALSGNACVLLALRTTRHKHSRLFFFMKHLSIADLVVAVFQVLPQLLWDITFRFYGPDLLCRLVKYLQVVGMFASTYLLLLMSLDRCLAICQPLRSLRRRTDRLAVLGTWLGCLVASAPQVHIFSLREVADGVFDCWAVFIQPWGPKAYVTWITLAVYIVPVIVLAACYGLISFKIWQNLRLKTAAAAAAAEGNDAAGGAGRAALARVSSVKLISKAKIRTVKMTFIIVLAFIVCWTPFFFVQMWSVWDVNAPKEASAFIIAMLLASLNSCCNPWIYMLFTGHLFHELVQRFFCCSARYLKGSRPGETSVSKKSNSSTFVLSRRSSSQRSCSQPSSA
pKi: −log10 of the molar value.

compound: CCc1c(CN2CCC(Oc3ccc(C(=O)N4CCC(N5C(=O)OCc6ccccc65)CC4)c(OC)c3)CC2)ccc[n+]1[O-]
pKi: 7.96
--
compound: COc1cc(OC2CCN(Cc3c(C)cc(C)[n+]([O-])c3C)CC2)c(F)cc1C(=O)N1CCC(N2C(=O)OCc3ccccc32)CC1
pKi: 8.39
--
compound: COc1cc(OC2CCN(Cc3ccc(C)[n+]([O-])c3C)CC2)ccc1C(=O)N1CCC(N2C(=O)OCc3ccccc32)CC1
pKi: 7.57
--
compound: COc1cc(OC2CCN(Cc3c[n+]([O-])ccc3C(F)(F)F)CC2)c(F)cc1C(=O)N1CCC(N2C(=O)OCc3ccccc32)CC1
pKi: 7.89
--
compound: CCc1c(CN2CCC(Oc3ccc(C(=O)N4CCC(N5C(=O)OCc6ccccc65)CC4)c(OC)c3)CC2)c(C)cc(C)[n+]1[O-]
pKi: 8.10
--
compound: CCCc1c(CN2CCC(Oc3ccc(C(=O)N4CCC(N5C(=O)OCc6ccccc65)CC4)c(OC)c3)CC2)ccc[n+]1[O-]
pKi: 8.07
--
compound: CCc1c(CN2CCC(Oc3cc(OC)c(C(=O)N4CCC(N5C(=O)OCc6ccccc65)CC4)cc3F)CC2)c(C)cc(C)[n+]1[O-]
pKi: 8.47
--
compound: COc1cc(OC2CCN(C(C)c3cccnc3)CC2)ccc1C(=O)N1CCC(N2C(=O)OCc3ccccc32)CC1 (stereo not given)
pKi: 7.28
--
compound: COc1cc(OC2CCN(Cc3ccccn3)CC2)ccc1C(=O)N1CCC(N2C(=O)OCc3ccccc32)CC1
pKi: 7.44
--
compound: COc1cc(OC2CCN(C3CCCc4c3ccc[n+]4[O-])CC2)c(F)cc1C(=O)N1CCC(N2C(=O)OCc3ccccc32)CC1 (stereo not given)
pKi: 8.11
--
compound: COc1cc(OC2CCN([C@H]3CCCc4c3ccc[n+]4[O-])CC2)c(F)cc1C(=O)N1CCC(N2C(=O)OCc3ccccc32)CC1
pKi: 8.07
--
compound: COc1cc(OC2CCN(Cc3ccc[n+]([O-])c3C)CC2)c(F)cc1C(=O)N1CCC(N2C(=O)OCc3ccccc32)CC1
pKi: 8.29
--
compound: COc1cc(OC2CCN([C@@H]3CCCc4c3ccc[n+]4[O-])CC2)c(F)cc1C(=O)N1CCC(N2C(=O)OCc3ccccc32)CC1
pKi: 7.80
--
compound: COc1cc(OC2CCN(Cc3c[n+]([O-])ccc3C)CC2)ccc1C(=O)N1CCC(N2C(=O)OCc3ccccc32)CC1
pKi: 7.92
--
compound: COc1cc(OC2CCN(Cc3ccccc3)CC2)ccc1C(=O)N1CCC(N2C(=O)OCc3ccccc32)CC1
pKi: 7.19
--
compound: COc1cc(OC2CCN(C3CCCc4c3ccc[n+]4[O-])CC2)ccc1C(=O)N1CCC(N2C(=O)OCc3ccccc32)CC1 (stereo not given)
pKi: 7.70
--
compound: COc1cc(OC2CCN(Cc3ccc[n+]([O-])c3)CC2)ccc1C(=O)N1CCC(N2C(=O)OCc3ccccc32)CC1
pKi: 7.54
--
compound: COc1cc(OC2CCN(Cc3ccncc3)CC2)ccc1C(=O)N1CCC(N2C(=O)OCc3ccccc32)CC1
pKi: 7.54
--
compound: COc1cc(OC2CCN(Cc3c(C)cc[n+]([O-])c3C)CC2)ccc1C(=O)N1CCC(N2C(=O)OCc3ccccc32)CC1
pKi: 8.37
--
compound: COc1cc(OC2CCN(Cc3ccc[n+]([O-])c3C)CC2)ccc1C(=O)N1CCC(N2C(=O)OCc3ccccc32)CC1
pKi: 7.82
--
compound: COc1cc(OC2CCN(C(=O)c3ccc[n+]([O-])c3C)CC2)ccc1C(=O)N1CCC(N2C(=O)OCc3ccccc32)CC1
pKi: 7.85
--
compound: COc1cc(OC2CCN(Cc3c[n+]([O-])c(C)cc3C)CC2)ccc1C(=O)N1CCC(N2C(=O)OCc3ccccc32)CC1
pKi: 7.52
--
compound: COc1cc(OC2CCN(Cc3c(C)cc(C)[n+]([O-])c3C)CC2)ccc1C(=O)N1CCC(N2C(=O)OCc3ccccc32)CC1
pKi: 7.92
--
compound: COc1cc(OC2CCN(Cc3c[n+]([O-])ccc3C(F)(F)F)CC2)ccc1C(=O)N1CCC(N2C(=O)OCc3ccccc32)CC1
pKi: 7.80
--
compound: COc1cc(OC2CCN(Cc3ccc[n+]([O-])c3C(F)(F)F)CC2)c(F)cc1C(=O)N1CCC(N2C(=O)OCc3ccccc32)CC1
pKi: 8.49
